Molecular target: human MC4R receptor (human, UniProt P32245 1-332)
Sequence (P32245 whole entry): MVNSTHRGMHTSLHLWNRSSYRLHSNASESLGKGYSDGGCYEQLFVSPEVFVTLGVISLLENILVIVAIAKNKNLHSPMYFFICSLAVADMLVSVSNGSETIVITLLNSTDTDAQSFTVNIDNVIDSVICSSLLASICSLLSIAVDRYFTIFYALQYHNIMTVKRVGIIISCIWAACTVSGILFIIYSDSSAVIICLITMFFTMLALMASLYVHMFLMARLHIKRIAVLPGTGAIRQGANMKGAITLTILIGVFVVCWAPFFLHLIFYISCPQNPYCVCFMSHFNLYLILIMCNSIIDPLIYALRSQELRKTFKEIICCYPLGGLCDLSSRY
Test: cell-based or functional assay
Starred links: 1 amine or outer side, 2 acyl side, 3 side chain; linkers in the order of their positions; H or OH if unused. Positions of bridges follow the written chain, without caps; N, C: chain ends. Non-standard residues stand in square brackets, D forms with d. Primed or numbered codes have the meaning given here. dTyr(4-OMe)″ = O-methyl-D-tyrosine, COc1ccc(C[C@@H](N[*:1])C(=O)[*:2])cc1; dTyr(O-Me) = O-methyl-D-tyrosine, COc1ccc(C[C@@H](N[*:1])C(=O)[*:2])cc1; dPhe(4-tBu) = CC(C)(C)c1ccc(C[C@@H](N)C(=O)O)cc1; Phe(4-Br) = N[C@@H](Cc1ccc(Br)cc1)C(=O)O; dPhe(4-Br) = N[C@H](Cc1ccc(Br)cc1)C(=O)O; d(αMeF) = C[C@@](N)(Cc1ccccc1)C(=O)O; dNMeF = CN[C@H](Cc1ccccc1)C(=O)O; Cit = NC(=O)NCCC[C@H](N)C(=O)O; Nle = CCCC[C@H](N)C(=O)O; Aib = CC(C)(N)C(=O)O
attribute measured: % max activation (%)
Supply the numeric figure in %, leaving out any unit text.

Ac-R[Nle]CR[dTyr(4-OMe)″]RWC-NH2 (disulfide 3-8; SMILES CCCC[C@H](NC(=O)[C@H](CCCNC(=N)N)NC(C)=O)C(=O)N[C@H]1CSSC[C@@H](C(N)=O)NC(=O)[C@H](Cc2c[nH]c3ccccc23)NC(=O)[C@H](CCCNC(=N)N)NC(=O)[C@@H](Cc2ccc(OC)cc2)NC(=O)[C@H](CCCNC(=N)N)NC1=O) [CTX-1614] | 41
Ac-RC[dA]R[dPhe(4-Br)]R[dW]C-NH2 (disulfide 2-8) [CTX-1214] | 74
Ac-RC[dA]R[Phe(4-Br)]RWC-NH2 (disulfide 2-8) [CTX-1212] | 55
Ac-RC[dA]R[dTyr(O-Me)]R[dW]C-NH2 (disulfide 2-8; SMILES COc1ccc(C[C@H]2NC(=O)[C@H](CCCNC(=N)N)NC(=O)[C@@H](C)NC(=O)[C@@H](NC(=O)[C@H](CCCNC(=N)N)NC(C)=O)CSSC[C@@H](C(N)=O)NC(=O)[C@@H](Cc3c[nH]c4ccccc34)NC(=O)[C@H](CCCNC(=N)N)NC2=O)cc1) [CTX-1238] | 79
Ac-RC[dA]R[dPhe(4-Br)]R[dW]CR[dF]-NH2 (disulfide 2-8; SMILES CC(=O)N[C@@H](CCCNC(=N)N)C(=O)N[C@H]1CSSC[C@@H](C(=O)N[C@@H](CCCNC(=N)N)C(=O)N[C@H](Cc2ccccc2)C(N)=O)NC(=O)[C@@H](Cc2c[nH]c3ccccc23)NC(=O)[C@H](CCCNC(=N)N)NC(=O)[C@@H](Cc2ccc(Br)cc2)NC(=O)[C@H](CCCNC(=N)N)NC(=O)[C@@H](C)NC1=O) [CTX-1222] | 79

**Q:** Request the reported % max activation associated with Ac-RC[Aib]R[dF][Cit][dW]C-NH2 (disulfide 2-8) [CTX-1271]
**A:** 95

**Q:** Request the reported % max activation associated with Ac-RC[dA][dR][dPhe(4-Br)]R[dW]C-NH2 (disulfide 2-8) [CTX-1250]
**A:** 8.7

**Q:** Request the reported % max activation associated with Ac-CGR[dPhe(4-Br)]RFC-NH2 (disulfide 1-7) [CTX-1640]
**A:** 100

**Q:** Request the reported % max activation associated with Ac-RC[dA]R[dNMeF]R[dW]C-NH2 (disulfide 2-8; SMILES CC(=O)N[C@@H](CCCNC(=N)N)C(=O)N[C@H]1CSSC[C@@H](C(N)=O)NC(=O)[C@@H](Cc2c[nH]c3ccccc23)NC(=O)[C@H](CCCNC(=N)N)NC(=O)[C@@H](Cc2ccccc2)N(C)C(=O)[C@H](CCCNC(=N)N)NC(=O)[C@@H](C)NC1=O) [CTX-1272]
**A:** 5.3

**Q:** Request the reported % max activation associated with Ac-RC[dA]R[dPhe(4-tBu)]R[dW]C-NH2 (disulfide 2-8; SMILES CC(=O)N[C@@H](CCCNC(=N)N)C(=O)N[C@H]1CSSC[C@@H](C(N)=O)NC(=O)[C@@H](Cc2c[nH]c3ccccc23)NC(=O)[C@H](CCCNC(=N)N)NC(=O)[C@@H](Cc2ccc(C(C)(C)C)cc2)NC(=O)[C@H](CCCNC(=N)N)NC(=O)[C@@H](C)NC1=O) [CTX-1242]
**A:** 5.8

**Q:** Request the reported % max activation associated with Ac-RC[dA]R[dPhe(4-Br)]RFC-NH2 (disulfide 2-8; SMILES CC(=O)N[C@@H](CCCNC(=N)N)C(=O)N[C@H]1CSSC[C@@H](C(N)=O)NC(=O)[C@H](Cc2ccccc2)NC(=O)[C@H](CCCNC(=N)N)NC(=O)[C@@H](Cc2ccc(Br)cc2)NC(=O)[C@H](CCCNC(=N)N)NC(=O)[C@@H](C)NC1=O) [CTX-1258]
**A:** 92

**Q:** Request the reported % max activation associated with Ac-RC[dA]R[dF][dR]WC-NH2 (disulfide 2-8; SMILES CC(=O)N[C@@H](CCCNC(=N)N)C(=O)N[C@H]1CSSC[C@@H](C(N)=O)NC(=O)[C@H](Cc2c[nH]c3ccccc23)NC(=O)[C@@H](CCCNC(=N)N)NC(=O)[C@@H](Cc2ccccc2)NC(=O)[C@H](CCCNC(=N)N)NC(=O)[C@@H](C)NC1=O) [CTX-1282]
**A:** 72

**Q:** Request the reported % max activation associated with Ac-RC[dA]R[d(αMeF)]R[dW]C-NH2 (disulfide 2-8; SMILES CC(=O)N[C@@H](CCCNC(=N)N)C(=O)N[C@H]1CSSC[C@@H](C(N)=O)NC(=O)[C@@H](Cc2c[nH]c3ccccc23)NC(=O)[C@H](CCCNC(=N)N)NC(=O)[C@@](C)(Cc2ccccc2)NC(=O)[C@H](CCCNC(=N)N)NC(=O)[C@@H](C)NC1=O) [CTX-1279]
**A:** 79
